- TARGET UNDER TEST: T1, human IL6R (human, UniProt P08887 20-358, limits assumed)
- T1 construct: Antigen of the Biacore experiments
- T1 sequence (looked up): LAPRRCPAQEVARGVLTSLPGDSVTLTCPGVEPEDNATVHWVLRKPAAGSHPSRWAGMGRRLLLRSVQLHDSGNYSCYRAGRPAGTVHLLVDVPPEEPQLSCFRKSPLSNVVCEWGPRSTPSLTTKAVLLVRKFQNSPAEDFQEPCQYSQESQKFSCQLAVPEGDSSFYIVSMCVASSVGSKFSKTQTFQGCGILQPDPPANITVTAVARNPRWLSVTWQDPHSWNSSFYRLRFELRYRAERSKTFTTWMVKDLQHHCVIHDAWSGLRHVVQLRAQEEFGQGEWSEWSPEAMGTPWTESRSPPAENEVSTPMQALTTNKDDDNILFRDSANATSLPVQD
- TEST NAME: SPR (Biacore), periplasmic extract
PROPERTY: koff (s⁻¹)
Answers are plain numbers, in s⁻¹.

Record excerpt, results attached:
# BINDER, UNIT DESCRIPTOR, ENDPOINT VALUE
rows = [
    ("IL6R65PMP11D11 (VHH) VHH: EVQLVESGGGLVQPGGSLRLSCAASGSTFKINIMAWYRQAPGKGRELVAGVITGGNTNYADSVKGRFTISRDNAKNTLYLQMNSLRPEDTAVYYCAFVTTNSDYDLGRDYWGQGTLVTVSS", "s⁻¹", 0.00039),
    ("IL6R65PMP11G7 (VHH) VHH: EVQLVESGGGLVQPGGSLRLSCAASGTIFKLNVMAWYRQAPGKGRELVAAIITGGTTTYADSVKGRFTISRDNAKNTLYLQMNSLRPEDTAVYYCAFVTTNSDYDLGRDYWGQGTLVTVSS", "s⁻¹", 0.00036),
    ("IL6R65PMP7G8 (VHH, Also expressed in E. coli and purified via IMAC) VHH: EVQLVESGGGLVQPGGSLRLSCAASGSTFRINVMAWYRQAPGKGRELVAGVINDGSTTYADSVKGRFTISRDNAKNTLYLQMNSLRPEDTAVYYCAFVTTNSDYDLGRDYWGQGTLVTVSS", "s⁻¹", 0.00041),
]

Now consider a different binder.
get_value(item= IL6R65PMP11E9 (VHH) VHH: EVQLVESGGGLVQPGGSLRLSCAASGTTFKINVMAWYRQAPGKGRELVAAIITGGTTTYADSVKGRFTISRDNAKNTLYLQMNSLRPEDTAVYYCAFVTTNSDYDLGRDYWGQGTLVTVSS , readout=koff) returns 0.00035
